System: Staphylococcus aureus
Test: Antimicrobial activity against Staphylococcus aureus ATCC 13709a
Format: functional
Quantity name: Activity (µg/mL)
Give bare numbers, in µg/mL.

Illustrative cases are given below, each with its answer.
[
  {
    "Molecular string": "COc1cc2c(cc1O)[C@H](Cc1ccc(OC)c(Oc3ccc(C[C@H]4c5cc(OC)c(OC)c(O)c5CCN4C)cc3)c1)N(C)CC2",
    "Value observed": 1000
  },
  {
    "Molecular string": "COc1ccc2cc1Oc1ccc(cc1)C[C@H]1c3c(c(O)c(OC)c(OC)c3Oc3cc4c(cc3OC)CCN(C)[C@H]4C2)CCN1C",
    "Value observed": 100
  },
  {
    "Molecular string": "COc1ccc(C[C@H]2c3cc(OC)c(OC)c(O)c3CCN2C)cc1Oc1ccc(C[C@H]2c3cc(OC)c(OC)c(O)c3CCN2C)cc1",
    "Value observed": 1000
  },
  {
    "Molecular string": "CCOc1c2c3c(c(OC)c1OC)Oc1cc4c(cc1OC)CCN(C)[C@H]4Cc1ccc(OC)c(c1)Oc1ccc(cc1)C[C@@H]3N(C)CC2",
    "Value observed": 100
  }
]

Here is the next item to consider.
*Q* # get_value(readout='Activity', item= `CN[C@@H]1[C@H](O[C@H]2[C@H](O[C@H]3[C@H](O)[C@@H](O)[C@H](N=C(N)N)[C@@H](O)[C@@H]3N=C(N)N)O[C@@H](C)[C@]2(O)C=O)O[C@@H](CO)[C@H](O)[C@H]1O` )
*A* 3.1
